Reported Activity is given for each of the following molecules.
Biological target: Integrin alpha-V/beta-5 (Homo sapiens) (UniProt P06756+P18084)
Experiment: Inhibition of alpha-V-beta-5 receptor
Type: protein-complex assay

Smiles Repr | Measured Result
N=C(N)NCCC[C@@H]1NC(=O)[C@H]2C/C=C\C[C@H](NC(=O)[C@H](CC(=O)O)NC(=O)CNC1=O)C(=O)N2 | 0.538 µM
N=C(N)NCCC[C@@H]1NC(=O)[C@H]2CCCC[C@H](NC(=O)[C@H](CC(=O)O)NC(=O)CNC1=O)C(=O)N2 | > 5 µM

Activity for N=C(N)NCCC[C@@H]1NC(=O)[C@@H]2CCCC[C@@H](NC(=O)[C@H](CC(=O)O)NC(=O)CNC1=O)C(=O)N2 ?
> 5 µM

Return reported Activity; argument: N=C(N)NCCC[C@@H]1NC(=O)[C@@H]2C/C=C\C[C@@H](NC(=O)[C@H](CC(=O)O)NC(=O)CNC1=O)C(=O)N2
> 5 µM

----------
Molecular target: Integrin alpha-V/beta-3 (Homo sapiens) (UniProt P05106+P06756)
Assay: Inhibition of alpha-V-beta-3 receptor
Type: protein-complex assay
Measured Attribute: Activity (µM)

Smiles Repr | Unit | Activity
N=C(N)NCCC[C@@H]1NC(=O)[C@@H]2CCCC[C@@H](NC(=O)[C@H](CC(=O)O)NC(=O)CNC1=O)C(=O)N2 | µM | 0.615

A = N=C(N)NCCC[C@@H]1NC(=O)[C@H]2CCCC[C@H](NC(=O)[C@H](CC(=O)O)NC(=O)CNC1=O)C(=O)N2
B = N=C(N)NCCC[C@@H]1NC(=O)[C@H]2C/C=C\C[C@H](NC(=O)[C@H](CC(=O)O)NC(=O)CNC1=O)C(=O)N2
C = N=C(N)NCCC[C@@H]1NC(=O)[C@@H]2C/C=C\C[C@@H](NC(=O)[C@H](CC(=O)O)NC(=O)CNC1=O)C(=O)N2
Given 3 compounds, produce a descending ranking by Activity. Please, when replying, give the labels in the order that was requested.
C, A, B
(C: 0.925 µM, A: 0.28 µM, B: 0.159 µM)

Attribution: ChEMBL document CHEMBL1146186
